All values here come from patent EP4745138A1.

Please respond with reported inhibition at 2 µM for every item in the list.
biological target: human Cereblon WT GST-tagged protein (Homo sapiens, UniProt Q96SW2); construct: purchased CISBIO 64BDCRBNPEH; assay: CRBN-binding affinity, HTRF (CEREBLON BINDING kit); details: read-out: Inhibition Rate at 2 µM (%)
Sequence (Q96SW2 whole entry): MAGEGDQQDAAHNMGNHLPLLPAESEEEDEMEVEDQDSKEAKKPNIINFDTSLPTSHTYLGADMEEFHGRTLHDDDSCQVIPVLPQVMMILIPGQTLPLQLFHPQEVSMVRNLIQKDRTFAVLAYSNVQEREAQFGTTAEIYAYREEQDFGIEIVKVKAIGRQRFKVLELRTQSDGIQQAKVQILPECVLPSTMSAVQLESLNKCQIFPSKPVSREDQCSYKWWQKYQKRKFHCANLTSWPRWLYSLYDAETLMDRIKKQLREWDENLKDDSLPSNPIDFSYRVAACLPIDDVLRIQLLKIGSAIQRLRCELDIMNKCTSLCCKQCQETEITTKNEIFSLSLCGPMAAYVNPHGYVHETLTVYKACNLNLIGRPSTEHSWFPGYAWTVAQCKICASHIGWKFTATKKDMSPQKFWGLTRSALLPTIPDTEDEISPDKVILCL

{"columns": ["compound", "inhibition at 2 µM"],
 "data": [
  ["C=CC(=O)N1CCC[C@@H](n2nc(-c3ccc(Oc4ccccc4)cc3)c3c(N)ncnc32)C1 [ibrutinib, Ibrutinib, reference compound]", "10 to 20%"],
  ["O=C1CCC(N2Cc3c(CN4CCN(c5ncc(C(=O)Nc6ccc(OC(F)(F)Cl)cc6)cc5-c5cc[nH]n5)CC4)cccc3C2=S)C(=O)N1 (stereo not shown)", "60 to 80%"],
  ["N#CC1(CNc2nc(-c3cc(NC4CCN(Cc5ccc6c(c5)CN(C5CCC(=O)NC5=O)C6=S)CC4)ncc3Cl)cs2)CCOCC1 (stereo not shown)", "80 to 100%"]
]}

Give inhibition at 2 µM for all compounds that follow.
1. Cc1cc(Nc2ncc(Cl)c(Nc3ccccc3S(=O)(=O)C(C)C)n2)c(OC(C)C)cc1C1CCN(Cc2cccc3c2CN(C2CCC(=O)NC2=O)C3=S)CC1 (stereo not shown)
2. COc1ccc2cn(C3CCN(Cc4ccc5c(c4)CN(C4CCC(=O)NC4=O)C5=S)CC3)nc2c1NC(=O)c1cccc(C(F)(F)F)c1 (stereo not shown)
3. N#CC1(CNc2cccc(-c3cc(NC4CCN(Cc5ccc6c(c5)CN(C5CCC(=O)NC5=O)C6=S)CC4)ncc3Cl)n2)CCOCC1 (stereo not shown)

["60 to 80%", "100 to 110%", "80 to 100%"]

###

biological target: human Cereblon WT GST-tagged protein (Homo sapiens); construct: purchased CISBIO 64BDCRBNPEH; test: CRBN-binding affinity, HTRF (CEREBLON BINDING kit); conditions: read-out: Inhibition Rate at 2 µM (%)
reported_property: inhibition at 2 µM

{"columns": ["compound", "result_value"],
 "data": [
  ["O=C1CCC(N2Cc3c(CN4CCC(n5cc(NC(=O)c6cnn7ccc(N8C[C@H]9C[C@@H]8CO9)nc67)c(C(F)F)n5)CC4)cccc3C2=S)C(=O)N1 (stereo partly drawn) [GT-05288]", "80 to 100%"],
  ["Cc1cc(-c2nc(C(=O)Nc3cc4oc(N5CCN(Cc6cccc7c6CN(C6CCC(=O)NC6=O)C7=S)CC5)nc4nc3N3CC[C@@H](O)C3)co2)ccn1 (stereo partly drawn) [GT-05289]", "60 to 80%"]
]}

Give inhibition at 2 µM for all compounds that follow.
1. CN(c1cccc(CNc2nc(Nc3ccc(N4CCN(Cc5ccc6c(c5)CN(C5CCC(=O)NC5=O)C6=S)CC4)cc3)ncc2C(F)(F)F)c1)S(C)(=O)=O (stereo not drawn) [GT-08781]
2. O=C1CCC(N2Cc3c(CN4CCN(c5ccc(CC(=O)Nc6cc(C7CCC7)[nH]n6)cc5)CC4)cccc3C2=S)C(=O)N1 (stereo not drawn) [GT-08688]
3. Cc1cc(-c2nc(C(=O)Nc3cc4oc(N5CCOCC5)nc4nc3N3CC[C@@H](O)C3)co2)ccn1 [emavusertib, Emavusertib, reference compound]
4. COc1cc(N2CCN(Cc3ccc4c(c3)C(=S)N(C3CCC(=O)NC3=O)C4)CC2)ccc1Nc1ncc(Cl)c(Nc2ccccc2P(C)(C)=O)n1 (stereo not drawn) [GT-08679]

60 to 80%
80 to 100%
0 to 10%
80 to 100%
